Data origin, for the record: PubChem BioAssay (NCI)

Assay: NCI Yeast Anticancer Drug Screen. Data for the cln2 rad14 strain (AID 165);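 note: 0% = growth equal to vehicle treated cultures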
Details: S. cerevisiae cln2 rad14 strain, at 50.0 µM, active compounds read high
Procedure: Growth inhibition of yeast strains with defined genetic alterations is measured as a screen for potential anti-cancer activity. Selected strains with alterations in DNA damage repair or cell cycle control were exposed to compounds and growth inhibition was measured relative to vehicle treated controls. The strain used in this assay is cln2 rad14
About 79,000 compounds went through this panel and 15% of them were active in at least one assay; those are over-represented in the sample as a whole.
Measured growth inhibition of individual entries
State the answer as a number, implicitly in %.

Known results for compounds:
Cc1ccc2cccc([N+](=O)[O-])c2n1 ... 27.4
CC12CCCC(C(=O)O)(C1)[C@H](C(C)(C)C(=O)O)CC2 (stereo partly specified) ... 8.75
c1ccc(N/N=C2/CSCc3ccccc32)cc1 ... 74.2
COc1ccc(CCn2cnn3c(=O)c4ccccc4nc3c2=O)cc1OC ... -0.8
COC(=O)C(Cc1cn(C(C)=O)c2ccccc12)P(=O)(OC)OC (stereo unspecified) ... 13

Consider now this further compound.
Ask: Looking for the measured growth inhibition of `C=C1C(=O)O[C@@H]2[C@H]1CC[C@H](C)[C@]1(O)CCC(=O)[C@@]21C` , can you help?
Result: 7.85
